System: Macaca fascicularis PRLR (mfPRLR.mmh; SEQ ID NO:403)
Sequence (as listed by the source): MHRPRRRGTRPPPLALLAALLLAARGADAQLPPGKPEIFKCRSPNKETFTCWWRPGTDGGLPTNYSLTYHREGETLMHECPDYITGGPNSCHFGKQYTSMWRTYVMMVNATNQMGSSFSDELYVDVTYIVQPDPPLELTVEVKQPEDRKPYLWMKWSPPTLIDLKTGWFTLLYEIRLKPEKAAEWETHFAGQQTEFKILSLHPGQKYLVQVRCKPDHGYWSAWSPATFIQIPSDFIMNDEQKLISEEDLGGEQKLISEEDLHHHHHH
Experiment: Surface plasmon resonance (Biacore T200), antibody-capture format
Type: binding
Details: 25° C., analyte mfPRLR.mmh
Method: Antibodies, expressed as human IgG1 Fc (i.e., “H1H” designations), were captured onto an anti-human Fc sensor surface (mAb-capture format), and soluble monomeric (hPRLR.mmh; SEQ ID NO:401, or Macaca fascicularis (mf) PRLR.mmh; SEQ ID NO:403) or dimeric (hPRLR.mFc; SEQ ID NO:402) PRLR protein was injected over the sensor surface. Measurements were conducted on a T200 Biacore instrument. […]
Readout Type: ka (M/s)
Give the value, in units of M/s, as a plain number.

Given item H1H6785P: fully human anti-PRLR antibody, human IgG1 Fc; HCVR/LCVR SEQ ID NOs 98/106 (antibody, V domains shown) VH: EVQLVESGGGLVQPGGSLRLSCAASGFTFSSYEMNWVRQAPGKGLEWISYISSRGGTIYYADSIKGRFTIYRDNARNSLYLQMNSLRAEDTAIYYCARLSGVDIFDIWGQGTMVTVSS VL: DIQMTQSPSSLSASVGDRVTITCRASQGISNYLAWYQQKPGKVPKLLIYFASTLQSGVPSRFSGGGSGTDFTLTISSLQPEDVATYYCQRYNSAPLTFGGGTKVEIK , the value recorded as its ka is 227000

Source of measurements: patent US10925971B2
